measurementTarget: Urokinase from human urine (Homo sapiens)
protocolSummary: Enzymatic assay, urokinase
Where a SMILES comes first, the peptide text is derived from it.
Assign Urokinase at 100 μM % to each entry below.
Respond with the bare value in %.

According to the records, this molecule CC[C@H](C)[C@@H]1NC(=O)[C@@H]2CCCN2C(=O)[C@@H]2CCCN2C(=O)[C@H](CC(=O)O)NC(=O)[C@H](CO)NC(=O)[C@H](CCCCN)NC(=O)[C@H]([C@@H](C)O)NC(=O)[C@@H]2CSSC[C@H](NC1=O)C(=O)N[C@@H](Cc1ccc(O)cc1)C(=O)N1CCC[C@@H]1C(=O)N1CCC[C@H]1C(=O)N[C@@H](C1CCCCC1)C(=O)N2 [Ex. 40] (HELM PEPTIDE1{[O=C([C@@H](N[*:1])C1CCCCC1)[*:2]].C.T.K.S.D.P.P.I.C.Y.[dP].P}$PEPTIDE1,PEPTIDE1,2:R3-10:R3|PEPTIDE1,PEPTIDE1,1:R1-13:R2$$$V2.0) displays Urokinase at 100 μM % of 10

According to the records, this molecule CCCC[C@@H]1NC(=O)[C@@H]2CCCN2C(=O)[C@H]2CCCN2C(=O)[C@H](Cc2ccc(O)cc2)NC(=O)[C@H](CCCCN)NC(=O)[C@H](CCC(N)=O)NC(=O)[C@@H]2CCCN2C(=O)[C@@H]2CCCN2C(=O)[C@H]([C@@H](C)CC)NC(=O)[C@H](CO)NC(=O)[C@H](C)NC(=O)[C@H]([C@@H](C)O)NC(=O)[C@H](CCC(=O)O)NC1=O [Ex. 104] (HELM PEPTIDE1{[Nle].E.T.A.S.I.P.P.Q.K.Y.[dP].P}$PEPTIDE1,PEPTIDE1,1:R1-13:R2$$$V2.0) displays Urokinase at 100 μM % of 0

According to the records, this molecule CC[C@H](C)[C@@H]1NC(=O)[C@@H]2CCCN2C(=O)[C@@H]2CCCN2C(=O)[C@H](CC(=O)O)NC(=O)[C@H](CO)NC(=O)[C@H](CCCCN)NC(=O)[C@H]([C@@H](C)O)NC(=O)[C@@H]2CSSC[C@H](NC1=O)C(=O)N[C@@H](Cc1ccc(O)cc1)C(=O)N1CCC[C@@H]1C(=O)N1CCC[C@H]1C(=O)N[C@@H](Cc1ccccc1)C(=O)N2 [Ex. 5] (HELM PEPTIDE1{F.C.T.K.S.D.P.P.I.C.Y.[dP].P}$PEPTIDE1,PEPTIDE1,2:R3-10:R3|PEPTIDE1,PEPTIDE1,1:R1-13:R2$$$V2.0) displays Urokinase at 100 μM % of 5.7

According to the records, this molecule C[C@@H]1NC(=O)[C@H]([C@@H](C)O)NC(=O)[C@@H]2CSSC[C@H](NC(=O)[C@H](CCC(N)=O)NC(=O)[C@@H]3CCCN3C(=O)[C@@H]3CCCN3C(=O)[C@H](CC3CCCCC3)NC(=O)[C@H](CO)NC1=O)C(=O)N[C@@H](Cc1ccccc1)C(=O)N1CCC[C@@H]1C(=O)N1CCC[C@H]1C(=O)N[C@@H](CCc1ccccc1)C(=O)N2 [Ex. 155] (HELM PEPTIDE1{[O=C([C@H](CCc1ccccc1)N[*:1])[*:2]].C.T.A.S.[Cha].P.P.Q.C.F.[dP].P}$PEPTIDE1,PEPTIDE1,2:R3-10:R3|PEPTIDE1,PEPTIDE1,1:R1-13:R2$$$V2.0) displays Urokinase at 100 μM % of 12
